biological target: K-Ras G12C (Homo sapiens, UniProt P01116, G12C); test: Western blot assay for in cell alkylation of K-Ras G12C (HCC1171 cells); conditions: 18 hours at 37° C., 7 point dose response
Sequence (P01116 1-188 isoform P01116-2 G12C): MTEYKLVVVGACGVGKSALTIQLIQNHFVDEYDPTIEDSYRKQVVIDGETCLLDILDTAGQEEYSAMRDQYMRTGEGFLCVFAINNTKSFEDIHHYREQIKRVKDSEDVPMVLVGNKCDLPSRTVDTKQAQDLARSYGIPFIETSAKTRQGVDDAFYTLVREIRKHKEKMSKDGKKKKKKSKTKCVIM
Threshold-based label: EC50 under 0.3 µM gives class 1, EC50 not under 0.3 µM gives class 0.

As a guide, the following entries are already answered.
compound	discrete.label
C=CC(=O)N1CCN(c2ncnc3c2CCC(c2c(C)ccc4[nH]ncc24)C3)CC1 (racemic)	class 0
C=CC(=O)N1CC2(CCN(c3nc(OCC4CCCN4C)nc4c3CCC(c3cc(O)cc5ccccc35)C4)CC2)C1 (centres unmarked)	class 0
C=CC(=O)N1CCN(c2nc(OC[C@@H]3CCCN3C)nc3c2C[C@@H](C)[C@H](c2c(C)c(C)cc(N)c2F)C3)[C@@H](C)C1 (single isomer, unassigned) [Example 11b]	class 1
C=CC(=O)N1CCN(c2ncnc3c2C[C@@H](C)[C@H](c2nc(N)cc(C)c2C(F)(F)F)C3)CC1 (single isomer, unassigned)	class 1

Req: Hi there! Is EC50 for C=CC(=O)N1CCN(c2nc(OCC3CCC(=O)N3)nc3c2CCC(c2cc(O)cc4ccccc24)C3)[C@@H](C)C1 (some centres unmarked) [Example 55a] below 0.3 µM, do you know?
Resp: class 0

Req: Lab note: EC50 threshold 0.3 µM. Does this compound come in strictly under it? C=CC(=O)N1CCN(c2ncnc3c2CC[C@H](c2nc(N)cc(C)c2C(F)(F)F)C3)CC1 [Example 26a]
Resp: class 0

Req: Determine if C=CC(=O)N1CCN(c2nc(OCC3CCCN3C)nc3c2CCC(c2cc(O)cc4ccccc24)C3)C(CC#N)C1 (centres unmarked) shows EC50 strictly lower than 0.3 µM.
Resp: class 0

Req: State whether 0.3 µM exceeds EC50 recorded for C=CC(=O)N1CCN(c2nc(OC[C@@H]3C[C@@H](F)CN3C)nc3c2CC[C@@H](c2cc(O)cc4ccccc24)C3)[C@@H](C)C1 (single isomer, unassigned) [Example 31b] .
Resp: class 0

---

target: K-Ras G12C (Homo sapiens, UniProt P01116, G12C); experiment: K-Ras G12C, SOS1, Raf RBD HTRF assay for inhibition of GTP exchange; settings: 18 hours preincubation with K-Ras G12C at room temperature; SOS1-mediated GTP exchange
Sequence (P01116 2-188 isoform P01116-2 G12C): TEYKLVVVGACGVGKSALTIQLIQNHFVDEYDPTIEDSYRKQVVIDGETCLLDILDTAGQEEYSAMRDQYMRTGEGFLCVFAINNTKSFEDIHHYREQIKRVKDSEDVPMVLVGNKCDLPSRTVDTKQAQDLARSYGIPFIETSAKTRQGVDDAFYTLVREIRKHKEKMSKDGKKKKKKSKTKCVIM
quantity.name: pIC50
In plain terms, pIC50 is the concentration in mol/L turned into minus its base-10 logarithm.

See these solved cases before continuing.
compound	pIC50
C=C(F)C(=O)N1CCN(c2nc(OC[C@@H]3CCCN3C)nc3c2CCC(c2cc(O)cc4ccccc24)C3)CC1CC#N (mixture of isomers) [Example 61a]	7.42
C=CC(=O)N1CCN(c2ncnc3c2CC[C@@H](c2c(C)c(C)cc4[nH]cnc24)C3)CC1 (single isomer, unassigned) [Example 10a]	4.72
C=CC(=O)N1CCN(c2ncnc3c2CC[C@H](c2c(C)c(C)cc4[nH]cnc24)C3)CC1 (single isomer, unassigned) [Example 10b]	6.57

Param item: C=CC(=O)N1CCN(c2ncnc3c2CC[C@H](c2c(F)c(N)cc(C)c2C(F)(F)F)C3)CC1 (single isomer, unassigned) [Example 27a] ; param system: K-Ras G12C (Homo sapiens, UniProt P01116, G12C); output pIC50: 7.05

# lookup: C=CC(=O)N1CCN(c2nc(OC[C@@H]3CCCN3C)nc3c2CCC(c2cc(O)cc4ccccc24)C3)CC1CC#N (some centres unmarked) [Example 58a] on K-Ras G12C (Homo sapiens, UniProt P01116, G12C), pIC50 = 7.55

With K-Ras G12C (Homo sapiens, UniProt P01116, G12C) as the test system, C=CC(=O)N1CCN(c2ncnc3c2C[C@@H](C)[C@H](c2c(C)ccc4[nH]ncc24)C3)CC1 (single isomer, unassigned) [Example 15a] showed pIC50 of 7.17

Readout pIC50 for C=CC(=O)N1CCN(c2nc(OC[C@@H]3C[C@H](F)CN3C)nc3c2CC[C@@H](c2cc(O)cc4ccccc24)C3)[C@@H](C)C1 (single isomer, unassigned) [Example 30b] , test system K-Ras G12C (Homo sapiens, UniProt P01116, G12C), was 5.92

Bench note, K-Ras G12C (Homo sapiens, UniProt P01116, G12C): C=CC(=O)N1CCN(c2ncnc3c2CC[C@@H](c2c(F)c(N)cc(C)c2C(F)(F)F)C3)CC1 (single isomer, unassigned) [Example 27b] , pIC50 reads 5.52
